target: human PD-L1 (Homo sapiens (Human)); experiment: T cell activation luciferase reporter cell culture system (T Cell Activation Assay); format: cell-based; conditions: luciferase reporter assay; PD-L1 aAPC/CHO-K1 cells with PD-1 effector Jurkat T cells
Recorded EC50 values for a group of compounds are listed next.
Entry rule: numbers only, all in nM.

COc1cc(-c2nccc(-c3cccc(-c4ccc(C5=NCCN5)c(OC)n4)c3Cl)c2Cl)ccc1C1=NCCN1 [Compound 106]    123
COc1nc(-c2cccc(-c3ccnc(-c4cc5c(=O)n(CCNCC(=O)O)c(OC)nn5c4)c3Cl)c2Cl)ccc1CNC[C@@H]1CCC(=O)N1 [Example 460]    96.5

# input Provide the documented EC50 with human PD-L1 (Homo sapiens (Human)) as the system for COc1cc(-c2nccc(-c3cccc(-c4ccc(CNC5CCN(C(C)=O)CC5)c(OC)n4)c3Cl)c2Cl)ccc1CNCC1(O)CC1 [Example 512]
# output 32.8

# input Requested read-out EC50, target or system human PD-L1 (Homo sapiens (Human)), entry COc1cc(-c2nccc(-c3cccc(-c4ccc(CNC5CCN(C(C)=O)CC5)c(OC)n4)c3Cl)c2Cl)ccc1CN1CCC(O)CC1 [Example 459]
# output 33

# input Requested read-out EC50, target or system human PD-L1 (Homo sapiens (Human)), entry COc1cc(-c2nccc(-c3cccc(-c4ccc(CNC[C@@H]5CCC(=O)N5)c(OC)n4)c3Cl)c2Cl)cc2c1CN(CC(O)C(C)C)CC2 (stereo partly drawn) [Cmpd 53]
# output 399

# input Please tell me: EC50 of COc1cc(-c2nccc(-c3cccc(-c4ccc(CN5CCC(OC)CC5)c(OC)n4)c3Cl)c2Cl)ccc1CN1CCC(OC)CC1 [Example 447] , system human PD-L1 (Homo sapiens (Human))?
# output 61.3

---

target: PD-L1 His protein / PD-1 Fc protein (Homo sapiens (Human)); test: HTRF Assay (PD-1/PD-L1 interaction); format: binding; conditions: PD-L1 His 6 nM, PD-1 Fc 6 nM
Sequence (Q9NZQ7 19-238): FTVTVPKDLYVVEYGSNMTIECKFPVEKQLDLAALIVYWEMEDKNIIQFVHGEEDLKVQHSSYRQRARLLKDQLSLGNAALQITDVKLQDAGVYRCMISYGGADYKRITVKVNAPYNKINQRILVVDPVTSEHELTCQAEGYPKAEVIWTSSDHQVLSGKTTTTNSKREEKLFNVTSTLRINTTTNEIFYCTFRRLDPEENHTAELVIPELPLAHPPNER
# IC50 per entry
Reply numerically in nM, unit not repeated.

Consider the following illustrative entries.
COc1cc(-c2nccc(-c3cccc(-c4ccc(CNC[C@@H]5CCC(=O)N5)c(OC)n4)c3Cl)c2Cl)cc(F)c1CN1CC2(CC(O)C2)C1 [Compound 146]    0.77
COc1cc(-c2nccc(-c3cccc(-c4ccc5c(CNC[C@H](C)O)cn(C)c5n4)c3Cl)c2Cl)ccc1CNC[C@@H]1CCC(=O)N1 [Compound 98]    0.7
COc1nc(-c2cccc(-c3ccnc(-c4cc5c(=O)n(C)c(CNC[C@H](C)O)nn5c4)c3Cl)c2Cl)ccc1CNC[C@@H]1CCC(=O)N1 [Compound 91]    4.4
COc1cc(-c2cccc(-c3ccnc(-c4cnc(CN5CC6(CNC(=O)C6)C5)c(OC)c4)c3Cl)c2Cl)ccc1CN1CC2(CNC(=O)C2)C1 [Compound 501]    0.92
COc1cc(-c2nccc(-c3cccc(-c4ccc5c(CNC6CCC(F)(F)CC6)cn(C)c5n4)c3Cl)c2Cl)ccc1CNC[C@@H]1CCC(=O)N1 [Compound 96]    0.6

# input What measured IC50 goes with COc1nc(-c2ccnc(-c3cccc4c3CCC[C@@H]4Nc3nc(OC)c(CN4CC5(CNC(=O)C5)C4)cc3C(F)(F)F)c2Cl)ccc1CNC[C@@H]1CCC(=O)N1 [Example 720] ?
# output 34.4

---

molecular target: human PD-L1 (Homo sapiens (Human)); assay: T cell activation luciferase reporter cell culture system (T Cell Activation Assay); format: cell-based; settings: luciferase reporter assay; PD-L1 aAPC/CHO-K1 cells with PD-1 effector Jurkat T cells
reported.metric: pEC50
Please treat pEC50 as minus the base-10 logarithm of the molar concentration.

COc1nc(-c2cccc(-c3ccnc(-c4ccc5c(CNC[C@@H]6CCO6)nn(C)c5c4)c3Cl)c2Cl)ccc1CNC[C@@H]1CCC(=O)N1    7.19

# input Any idea what pEC50 came out for COc1cc(-c2nccc(-c3cccc(NC(=O)c4ccc(CNC[C@@H]5CCC(=O)N5)cn4)c3C)c2Cl)ccc1CNC[C@@H]1CCC(=O)N1 on human PD-L1 (Homo sapiens (Human))?
# output 7.18

# input Request: pEC50, test system human PD-L1 (Homo sapiens (Human)), entry COCC(=O)N1CC2(CN(Cc3ccc(-c4cccc(-c5ccnc(-c6ccc(CN7CC8(CNC(=O)C8)C7)c(OC)c6)c5Cl)c4Cl)nc3OC)C2)C1
# output 7.58

# input Given the entry COc1nc(-c2cccc(-c3ccnc(-c4cc(OC)c5nc(CN6CC7(CC(O)C7)C6)nn5c4)c3Cl)c2Cl)ccc1CNC(C)C , what pEC50 was observed with human PD-L1 (Homo sapiens (Human))?
# output 7.06

# input What measured pEC50 is associated with COc1nc(-c2cccc(-c3ccnc(-c4ccc(CN5CC6(CNC(=O)C6)C5)c(F)c4)c3Cl)c2Cl)ccc1CN1CC2(CNC(=O)C2)C1 on human PD-L1 (Homo sapiens (Human))?
# output 7.20

# input Query pEC50 on human PD-L1 (Homo sapiens (Human)) for COc1cc(-c2nccc(-c3cccc(-c4ccc(CN5CCC(O)CC5)c(OC)n4)c3Cl)c2Cl)ccc1CN1CCC(O)CC1
# output 7.81

---

Reported EC50 values for a set of compounds
biological target: human PD-L1 (Homo sapiens (Human), UniProt Q9NZQ7); test: T cell activation luciferase reporter cell culture system (T Cell Activation Assay); assay type: cell-based; conditions: luciferase reporter assay; PD-L1 aAPC/CHO-K1 cells with PD-1 effector Jurkat T cells
Sequence (Q9NZQ7 19-290): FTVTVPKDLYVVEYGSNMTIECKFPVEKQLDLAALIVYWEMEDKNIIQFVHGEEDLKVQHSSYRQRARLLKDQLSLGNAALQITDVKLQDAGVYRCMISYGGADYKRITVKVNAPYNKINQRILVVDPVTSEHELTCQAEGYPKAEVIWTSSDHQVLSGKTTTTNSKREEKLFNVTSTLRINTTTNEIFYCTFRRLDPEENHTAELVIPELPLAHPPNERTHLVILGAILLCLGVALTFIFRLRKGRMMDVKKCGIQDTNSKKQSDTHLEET
The response must be a number in nM with no trailing unit.

Some solved cases for reference:
COc1cc(-c2nccc(-c3cccc(-c4ccc5c(CNC6CCOCC6)cn(C)c5n4)c3Cl)c2Cl)ccc1CNCCO    237
COc1nc(-c2cccc(-c3ccnc(-c4ccc5c(c4)CCCC5NC[C@H](C)O)c3Cl)c2Cl)ccc1CNC[C@@H]1CCC(=O)N1 (mixture of isomers)    185
COc1cc(-c2nccc(-c3cccc(-c4ccc(CNCC5(O)CC5)c(OC)n4)c3Cl)c2Cl)ccc1CNCC1(O)CC1    36.4

# input GET /values?readout=EC50&item= COc1nc(-c2cccc(-c3ccnc(-c4cc(OC)c5nc(CN[C@H]6CC[C@H](O)CC6)nn5c4)c3Cl)c2Cl)ccc1CNC1CCN(C(C)=O)CC1
# output 211

# input Which EC50 is reported for this compound? COc1cc(-c2nccc(-c3cccc(-c4ccc(CN5CC6(CNC(=O)C6)C5)c(OC)n4)c3Cl)c2Cl)ccc1CNC1CCN(C(C)=O)CC1
# output 12.4

# input Bench note: what EC50 did COc1cc(-c2nccc(-c3cccc(-c4ccc(CNC5CCOCC5)c(OC)n4)c3Cl)c2Cl)ccc1CN(C)C1CCOCC1 show?
# output 149

---

target: PD-L1 His protein / PD-1 Fc protein (Homo sapiens (Human)); test: HTRF Assay (PD-1/PD-L1 interaction); type: binding; conditions: PD-L1 His 6 nM, PD-1 Fc 6 nM
pIC50: −log10 of the molar value.
# label = satisfied if pIC50 >= 9 else not satisfied

# input Entry CCOc1cc(-c2nccc(-c3cccc(-c4ccc(CNC5CCN(C(C)=O)CC5)c(OC)n4)c3Cl)c2Cl)cn2nc(CN[C@H]3C[C@](C)(O)C3)nc12 [Example 584] : is its pIC50 no less than 9?
# output not satisfied

# input I'd appreciate it if you could say whether CNCc1ccc(-c2cccc(-c3ccnc(-c4ccc(CN5CC6(CC(C(=O)O)C6)C5)c(OC)c4)c3Cl)c2Cl)nc1OC [Compound 227] has pIC50 at least equal to 9.
# output not satisfied

# input In plain terms: is recorded pIC50 at least 9 for COc1nc(-c2cccc(-c3ccnc(-c4cc(OC)c5nc(CN[C@H]6CC[C@H](O)CC6)nn5c4)c3Cl)c2Cl)ccc1CNC(C)C [Compound 758] ?
# output satisfied

# input Threshold query (pIC50 >= 9) on COc1nc(-c2cccc(-c3ccnc(-c4ccc5c(c4)CNC5)c3Cl)c2Cl)ccc1CN(C)C1CCN(C(C)=O)CC1 [Compound 163]
# output not satisfied

# input hey, is pIC50 for this one >= 9? COc1cc(-c2nccc(-c3cccc(-c4ccc(CNCCN5CCCC5=O)c(OC)n4)c3Cl)c2Cl)ccc1CNCCN1CCCC1=O [Example 303]
# output not satisfied

# input // inclusive: pIC50 at least 9? input: COc1nc(-c2cccc(-c3ccnc(-c4cc(OC)c5nc(CN6CC(C)(C#N)C6)cn5c4)c3Cl)c2Cl)ccc1CNC1CCN(C(C)=O)CC1 [Example 477]
# output not satisfied

# input Reported pIC50 at or above 9? COc1nc(-c2cccc(-c3ccnc(-c4cc(Cl)c5c(c4)CCN(CCC(C)(C)O)C5)c3Cl)c2Cl)ccc1CNC[C@@H]1CCC(=O)N1 [Compound 208]
# output not satisfied

# input Is it the case that COc1nc(-c2cccc(-c3ccnc(-c4cc(OC)c5nc(CN6CC7(COC7)C6)nn5c4)c3Cl)c2Cl)ccc1CNC1CCN(C(C)=O)CC1 [Example 698] has pIC50 reaching or exceeding 9?
# output satisfied

# input Evaluate COc1cc(-c2nccc(-c3cccc(NC(=O)c4ccc(CNC[C@@H]5CCC(=O)N5)cn4)c3C)c2Cl)ccc1CNCCCF [Example 749] : pIC50 at minimum 9?
# output satisfied
